Data credit: PubChem BioAssay (NCI)

# Test system: OVCAR-3 ovarian
# ASSAY DETAILS: NCI-60 one-dose screen, 48 h
# TEST CONTEXT: 10 µM unless noted
About 83,000 compounds went through this panel and 20% of them were active in at least one assay; those are over-represented in the sample as a whole. Active and inactive are the calls of the source. The calls were made as follows: active = growth percent below 10; inactive = the rest.
Assign a class; possible classes are active, inactive

Q) Each molecule tested received a call. Report the one for `COc1cc(/C=C2\C(=O)Nc3ccccc32)cc(OC)c1O` .
A) inactive

Q) What about `COc1cc(-c2nc(SC(C)C)nc(Nc3cccc(C)c3)c2C#N)cc(OC)c1OC` ?
A) inactive

---

Listed here: items and their measured growth.
# Tested on: HCT-116 colon
# ASSAY DETAILS: NCI-60 one-dose screen, 48 h (100 = growth as untreated, 0 = no growth, -100 = all killed)
# TEST CONTEXT: 10 µM unless noted
This is part of a sample that, as a whole, favours compounds with a hit. Of some 83,000 tested, about 20% had one in any assay.
Number in %, nothing else.

Example cases with answers are listed next.
| ENTRY SMILES | READOUT UNIT | growth |
| --- | --- | --- |
| CN1CCN(c2nc(-c3ccncc3)nc3sc4c(c23)CCCCCC4)CC1 | % | 56.5 |
| Cc1nn(CC(=O)O)c2c1C(=O)CC(C)(C)C2 | % | 92.3 |
| COc1ccc(Nc2nc(NCCNc3ccnc4cc(Cl)ccc34)nc(N3CCOCC3)n2)cc1 | % | 41.8 |
| COc1ccc(CSc2nc3cc(OC)c(OC)cc3c(=O)n2-c2ccc(Cl)cc2)cc1 | % | 98.4 |
| COc1nc2c(cc1S(=O)(=O)c1ccccc1)CCc1c-2cnn1-c1ccccc1 | % | 72.4 |

Now consider the entry below.
Q) For the molecule `C=CC[P+](c1ccccc1)(c1ccccc1)c1ccccc1` , what growth is on record?
A) 36.7
